List of total protein half-life in vivo values.
# method description: total protein half-life in vivo (active degradation + dilution); higher = more stable protein
# stated conditions: wild type E. coli NCM3722; growth: C-lim chemostat; doubling time 3 h
The reply should contain only the number, in h.

| residue codes | total protein half-life in vivo / h |
| --- | --- |
| MKLFAQGTSLDLSHPHVMGILNVTPDSFSDGGTHNSLIDAVKHANLMINAGATIIDVGGESTRPGAAEVSVEEELQRVIPVVEAIAQRFEVWISVDTSKPEVIRESAKVGAHIINDIRSLSEPGALEAAAETGLPVCLMHMQGNPKTMQEAPKYDDVFAEVNRYFIEQIARCEQAGIAKEKLLLDPGFGFGKNLSHNYSLLARLAEFHHFNLPLLVGMSRKSMIGQLLNVGPSERLSGSLACAVIAAMQGAHIIRVHDVKETVEAMRVVEATLSAKENKRYE [P0AC13] | 2.88 |
| MSTTNHDHHIYVLMGVSGSGKSAVASEVAHQLHAAFLDGDFLHPRRNIEKMASGEPLNDDDRKPWLQALNDAAFAMQRTNKVSLIVCSALKKHYRDLLREGNPNLSFIYLKGDFDVIESRLKARKGHFFKTQMLVTQFETLQEPGADETDVLVVDIDQPLEGVVASTIEVIKKGK | 3.02 |
| MIEKIWSGESPLWRLLLPLSWLYGLVSGAIRLCYKLKLKRAWRAPVPVVVVGNLTAGGNGKTPVVVWLVEQLQQRGIRVGVVSRGYGGKAESYPLLLSADTTTAQAGDEPVLIYQRTDAPVAVSPVRSDAVKAILAQHPDVQIIVTDDGLQHYRLARDVEIVVIDGVRRFGNGWWLPAGPMRERAGRLKSVDAVIVNGGVPRSGEIPMHLLPGQAVNLRTGTRCDVAQLEHVVAMAGIGHPPRFFATLKMCGVQPEKCVPLADHQSLNHADVSALVSAGQTLVMTEKDAVKCRAFAEENWWYLPVDAQLSGDEPAKLLTQLTLLASGN | 3.11 |
| MSVIETATVPLAQQQADALLNVKDLRVTFSTPDGDVTAVNDLNFSLRAGETLGIVGESGSGKSQTAFALMGLLAANGRIGGSATFNGREILNLPEHELNKLRAEQISMIFQDPMTSLNPYMRVGEQLMEVLMLHKNMSKAEAFEESVRMLDAVKMPEARKRMKMYPHEFSGGMRQRVMIAMALLCRPKLLIADEPTTALDVTVQAQIMTLLNELKREFNTAIIMITHDLVVVAGICDKVLVMYAGRTMEYGNARDVFYQPVHPYSIGLLNAVPRLDAEGETMLTIPGNPPNLLRLPKGCPFQPRCPHAMEICSSAPPLEEFTPGRLRACFKPVEELL | 2.84 |
| MKSLSYKRIYKSQEYLATLGTIEYRSLFGSYSLTVDDTVFAMVSDGELYLRACEQSAQYCVKHPPVWLTYKKCGRSVTLNYYRVDESLWRNQLKLVRLSKYSLDAALKEKSTRNTRERLKDLPNMSFHLEAILGEVGIKDVRALRILGAKMCWLRLRQQNSLVTEKILFMLEGAIIGIHEAALPVARRQELAEWADSLTPKQEFPAELE | 2.28 |

The record that follows has no total protein half-life in vivo shown yet.
total protein half-life in vivo in this record for MTVTRPRAERGAFPPGTEHYGRSLLGAPLIWFPAPAASRESGLILAGTHGDENSSVVTLSCALRTLTPSLRRHHVVLCVNPDGCQLGLRANANGVDLNRNFPAANWKEGETVYRWNSAAEERDVVLLTGDKPGSEPETQALCQLIHRIQPAWVVSFHDPLACIEDPRHSELGEWLAQAFELPLVTSVGYETPGSFGSWCADLNLHCITAEFPPISSDEASEKYLFAMANLLRWHPKDAIRPS [P0ACV6] : 3.03
